# experimental.target: His-BRDT-BD2 (Homo sapiens (Human), UniProt Q58F21)
# settings: 0 = theoretically present in the library but not detected in the sequencing data
# reported Count (observed molecule count in the DEC-Tec screen against BRDT-BD2); entries follow
Write the number on its own, no unit after it.

Below are worked cases with known answers.
> print(dat)
                           structure.smiles  test.value
1  CNC(=O)c1ccc(C(=O)Nc2cc(NC(=O)c3ccc4c(c3)c(-c3ccccc3C)nn4C)ccc2OC)cc1           0
2  CNC(=O)c1ccc(C(=O)Nc2cc(NC(=O)c3ccc4c(c3)c(-c3ccc(C)cc3C)nn4C)ccc2OC)cc1         515
3  CNC(=O)c1ccc(C(=O)Nc2cc(NC(=O)c3ccc4c(c3)c(-c3ccc(N)nc3)nn4C)ccc2C)cc1           3
4  CNC(=O)c1ccc(C(=O)Nc2cc(NC(=O)c3ccc4c(c3)c(-c3ccc(N)cc3)nn4C)ccc2OC)cc1          63
5  CNC(=O)c1ccc(C(=O)Nc2cc(NC(=O)c3ccc4c(c3)c(-c3cc5ccccc5n3C)nn4C)ccc2OC)cc1        1039
6  CNC(=O)c1ccc(C(=O)Nc2cc(NC(=O)c3ccc4c(c3)c(-c3cc5ccccc5n3C)nn4C)ccc2C)cc1         846
7  CNC(=O)c1ccc(C(=O)Nc2cc(NC(=O)c3ccc4c(c3)c(-c3ccncc3)nn4C)ccc2C)cc1           0

We now examine a further compound.
Query string: # input compound: "CNC(=O)c1ccc(C(=O)Nc2cc(NC(=O)c3ccc4c(c3)c(-c3ccc(N)cc3C)nn4C)ccc2OC)cc1" ; wanted: its Count (observed molecule count in the DEC-Tec screen against BRDT-BD2)
Result string: 838

====

# experimental.target: BRDT-BD2 (Homo sapiens (Human), UniProt Q58F21)
# assay.text: AlphaScreen bromodomain proximity assay (competition with biotinylated (+)-JQ1), BRDT-BD2
pIC50: −log10 of the molar value.
We use 7 as the dividing line for pIC50: on or above the line is yes (1), below is no (0).

> print(dat)
                           structure.smiles  group.label
1  CNC(=O)c1ccc(C(=O)Nc2cc(NC(=O)c3ccc4c(c3)c(-c3ccc(N5CCOCC5)nc3)nn4C)ccc2C)cc1       no (0)
2  CC(=O)Nc1cc(NC(=O)c2ccc3c(c2)c(-c2ccc(N)cc2C)nn3C)ccc1C      yes (1)
3  CC(=O)Nc1cc(NC(=O)c2ccc3c(c2)c(-c2ccc(N)nc2)nn3C(C)C)ccc1C       no (0)
4  CNC(=O)c1ccc(C(=O)Nc2cc(NC(=O)c3ccc4c(c3)c(-c3ccc(N)cc3)nn4C)ccc2OC)cc1      yes (1)
5  COc1ccc(NC(=O)c2ccc3c(c2)c(-c2cc4ccccc4n2C)nn3C)c(C(N)=O)c1       no (0)
6  COc1ccc(NC(=O)c2ccc3c(c2)c(-c2ccc(NC(C)=O)cc2C)nn3C)cc1       no (0)
7  COc1ccc(NC(=O)c2ccc3nn(C)c(-c4ccc(N)cc4C)c3c2)cc1       no (0)
8  Cn1nc(-c2ccc(N)nc2)c2cc(C(=O)Nc3cccc(C(=O)O)c3)ccc21       no (0)

Query string: Please indicate if the recorded pIC50 for "CC(=O)N1CCC(NC(=O)c2ccc3c(c2)c(-c2ccc(N)nc2)nn3C)CC1" meets or exceeds 7.
Result string: no (0)

Query string: Given "Cc1cc(N)ccc1-c1nn(C)c2ccc(C(=O)Nc3ccc(C(F)(F)F)cc3)cc12" , state whether its pIC50 is at least 7.
Result string: no (0)

Query string: Test whether the molecule "CNC(=O)c1ccc(C(=O)Nc2cc(NC(=O)c3ccc4c(c3)c(-c3cc5ccccc5n3C)nn4C)ccc2OC)cc1" records pIC50 of 7 or higher.
Result string: yes (1)

Query string: State whether the measured pIC50 reaches 7, counting equality as reaching it, for "CC(=O)Nc1cc(NC(=O)c2ccc3c(c2)c(-c2ccc(N)nc2)nn3C)ccc1C"
Result string: yes (1)

Query string: Kindly determine if pIC50 recorded for "CNC(=O)c1ccc(C(=O)Nc2cc(NC(=O)c3ccc4c(c3)c(-c3ccc(OCc5ccccc5)cc3)nn4C)ccc2C)cc1" is above or exactly 7.
Result string: no (0)

Query string: Identify whether the reported pIC50 of the following molecule is 7 or greater: "COc1ccc(NC(=O)c2ccc3c(c2)c(-c2cc4ccccc4n2C)nn3C)cc1NC(C)=O"
Result string: yes (1)

Query string: # bool: pIC50 of "CCOc1ccc(NC(=O)c2ccc3c(c2)c(-c2ccc(N)cc2C)nn3C)cc1" >= 7
Result string: yes (1)

Query string: Is pIC50 at least 7? Consider "Cn1nc(-c2ccc(N)nc2)c2cc(C(=O)NC3CCN(C(=O)OC(C)(C)C)CC3)ccc21"
Result string: no (0)

Query string: Does "CNC(=O)c1ccc2c(c1)c(-c1ccc(N)cc1C)nn2C" have a reported pIC50 of at least 7?
Result string: no (0)
